Experiment: 1st phase clinical test: pharmacokinetics of petasin in serum after single oral administration of tablets containing butterbur extract (open crossover; enzyme immunoassay)
Type: in vivo, human (clinically healthy men)
Settings: male, human, serum, oral, 2 tablets, after administering 2 tablets; 5 h p.a.; read-out: Petasin serum concentration Max.
Endpoint Label: concentration at 5 h (ng/mL)
The reply should be a number in ng/mL, with the unit left off.

Data request, read-out concentration at 5 h, for C=C(C)C1CC2(C)C(=CC1=O)CCC(OC(=O)/C(C)=C\C)C2C (stereo not shown) [petasin] 8.8

----------
Experiment: 1st phase clinical test: pharmacokinetics of petasin in serum after single oral administration of tablets containing butterbur extract (open crossover; enzyme immunoassay)
Assay type: in vivo, human (clinically healthy men)
Conditions: male, human, serum, oral, 4 tablets, after administering 4 tablets; 8 h p.a.; read-out: Petasin serum concentration Max.
Endpoint Label: concentration at 8 h (ng/mL)
The reply should be a number in ng/mL, with the unit left off.

Data request, read-out concentration at 8 h, for C=C(C)C1CC2(C)C(=CC1=O)CCC(OC(=O)/C(C)=C\C)C2C (stereo not shown) 15.7

----------
Experiment: 1st phase clinical test: pharmacokinetics of petasin in serum after single oral administration of tablets containing butterbur extract (open crossover; enzyme immunoassay)
Assay type: in vivo, human (clinically healthy men)
Settings: male, human, serum, oral, 4 tablets, after administering 4 tablets; 1 h p.a.; read-out: Petasin serum concentration Median
Endpoint Label: concentration at 1 h

Data request, read-out concentration at 1 h, for C=C(C)C1CC2(C)C(=CC1=O)CCC(OC(=O)/C(C)=C\C)C2C (stereo not shown) 38.1 ng/mL

----------
Test: 1st phase clinical test: pharmacokinetics of petasin in serum after single oral administration of tablets containing butterbur extract (open crossover; enzyme immunoassay)
Format: in vivo, human (clinically healthy men)
Conditions: male, human, serum, oral, 2 tablets, after administering 2 tablets; 0.75 h p.a.; read-out: Petasin serum concentration Max.
Procedure: Petasin ovalbumin is adsorptively bound to polystyrene microtitration plates in a concentration of […] in 0.1 M carbonate buffer, pH=9.5, (100 μl/well) for 16 hours at 4° C. and thereupon sucked off. After washing it two times with 300 μl/well washing buffer (PBS, 0.1% Tween 20) it is blocked for 2 hours at room temperature with 150 μl/well blocking solution (0.6% gelatine, 0.02% […] in PBS) and subsequently washed three times with washing buffer. […]
Endpoint Label: concentration at 0.75 h (ng/mL)
The reply should be a number in ng/mL, with the unit left off.

Data request, read-out concentration at 0.75 h, for C=C(C)C1CC2(C)C(=CC1=O)CCC(OC(=O)/C(C)=C\C)C2C (stereo not shown) 23.8

----------
Assay: 1st phase clinical test: pharmacokinetics of petasin in serum after single oral administration of tablets containing butterbur extract (open crossover; enzyme immunoassay)
Type: in vivo, human (clinically healthy men)
Conditions: male, human, serum, oral, 4 tablets, after administering 4 tablets; 0.25 h p.a.; read-out: Petasin serum concentration Mean
Endpoint Label: concentration at 0.25 h (ng/mL)
The reply should be a number in ng/mL, with the unit left off.

Data request, read-out concentration at 0.25 h, for C=C(C)C1CC2(C)C(=CC1=O)CCC(OC(=O)/C(C)=C\C)C2C (stereo not shown) 4.2

----------
Assay: 1st phase clinical test: pharmacokinetics of petasin in serum after single oral administration of tablets containing butterbur extract (open crossover; enzyme immunoassay)
Format: in vivo, human (clinically healthy men)
Conditions: male, human, serum, oral, 4 tablets, after administering 4 tablets; 1 h p.a.; read-out: Petasin serum concentration Min.
Endpoint Label: concentration at 1 h (ng/mL)
The reply should be a number in ng/mL, with the unit left off.

Data request, read-out concentration at 1 h, for C=C(C)C1CC2(C)C(=CC1=O)CCC(OC(=O)/C(C)=C\C)C2C (stereo not shown) 7.8

----------
Assay: 1st phase clinical test: pharmacokinetics of petasin in serum after single oral administration of tablets containing butterbur extract (open crossover; enzyme immunoassay)
Type: in vivo, human (clinically healthy men)
Details: male, human, serum, oral, 4 tablets, after administering 4 tablets; 24 h p.a.; read-out: Petasin serum concentration Median
Endpoint Label: concentration at 24 h (ng/mL)
The reply should be a number in ng/mL, with the unit left off.

Data request, read-out concentration at 24 h, for C=C(C)C1CC2(C)C(=CC1=O)CCC(OC(=O)/C(C)=C\C)C2C (stereo not shown) 1

----------
Test: 1st phase clinical test: pharmacokinetics of petasin in serum after single oral administration of tablets containing butterbur extract (open crossover; enzyme immunoassay)
Assay type: in vivo, human (clinically healthy men)
Conditions: male, human, serum, oral, 2 tablets, after administering 2 tablets; 0 h p.a.; read-out: Petasin serum concentration Max.
Endpoint Label: concentration at 0 h (ng/mL)
The reply should be a number in ng/mL, with the unit left off.

Data request, read-out concentration at 0 h, for C=C(C)C1CC2(C)C(=CC1=O)CCC(OC(=O)/C(C)=C\C)C2C (stereo not shown) 0

----------
Test: 1st phase clinical test: pharmacokinetics of petasin in serum after single oral administration of tablets containing butterbur extract (open crossover; enzyme immunoassay)
Type: in vivo, human (clinically healthy men)
Conditions: male, human, serum, oral, 4 tablets, after administering 4 tablets; 1.5 h p.a.; read-out: Petasin serum concentration Median
Endpoint Label: concentration at 1.5 h (ng/mL)
The reply should be a number in ng/mL, with the unit left off.

Data request, read-out concentration at 1.5 h, for C=C(C)C1CC2(C)C(=CC1=O)CCC(OC(=O)/C(C)=C\C)C2C (stereo not shown) [petasin] 32.4

----------
Test: 1st phase clinical test: pharmacokinetics of petasin in serum after single oral administration of tablets containing butterbur extract (open crossover; enzyme immunoassay)
Assay type: in vivo, human (clinically healthy men)
Settings: male, human, serum, oral, 2 tablets, after administering 2 tablets; 0.5 h p.a.; read-out: Petasin serum concentration Median
Endpoint Label: concentration at 0.5 h
Reply with the number, then its unit.

Data request, read-out concentration at 0.5 h, for C=C(C)C1CC2(C)C(=CC1=O)CCC(OC(=O)/C(C)=C\C)C2C (stereo not shown) [petasin] 5.9 ng/mL

----------
Experiment: 1st phase clinical test: pharmacokinetics of petasin in serum after single oral administration of tablets containing butterbur extract (open crossover; enzyme immunoassay)
Format: in vivo, human (clinically healthy men)
Conditions: male, human, serum, oral, 4 tablets, after administering 4 tablets; 2.5 h p.a.; read-out: Petasin serum concentration Median
Endpoint Label: concentration at 2.5 h (ng/mL)
The reply should be a number in ng/mL, with the unit left off.

Data request, read-out concentration at 2.5 h, for C=C(C)C1CC2(C)C(=CC1=O)CCC(OC(=O)/C(C)=C\C)C2C (stereo not shown) 26.1

----------
Assay: 1st phase clinical test: pharmacokinetics of petasin in serum after single oral administration of tablets containing butterbur extract (open crossover; enzyme immunoassay)
Format: in vivo, human (clinically healthy men)
Conditions: male, human, serum, oral, 4 tablets, after administering 4 tablets; 0 h p.a.; read-out: Petasin serum concentration Median
Endpoint Label: concentration at 0 h

Data request, read-out concentration at 0 h, for C=C(C)C1CC2(C)C(=CC1=O)CCC(OC(=O)/C(C)=C\C)C2C (stereo not shown) < 1 ng/mL

----------
Test: 1st phase clinical test: pharmacokinetics of petasin in serum after single oral administration of tablets containing butterbur extract (open crossover; enzyme immunoassay)
Assay type: in vivo, human (clinically healthy men)
Conditions: male, human, serum, oral, 2 tablets, after administering 2 tablets; 5 h p.a.; read-out: Petasin serum concentration Min.
Endpoint Label: concentration at 5 h
Reply with the number, then its unit.

Data request, read-out concentration at 5 h, for C=C(C)C1CC2(C)C(=CC1=O)CCC(OC(=O)/C(C)=C\C)C2C (stereo not shown) 1.5 ng/mL

----------
Test: 1st phase clinical test: pharmacokinetics of petasin in serum after single oral administration of tablets containing butterbur extract (open crossover; enzyme immunoassay)
Type: in vivo, human (clinically healthy men)
Details: male, human, serum, oral, 4 tablets, after administering 4 tablets; 1.833 h p.a.; read-out: Petasin serum concentration Mean
Endpoint Label: concentration at 1.833 h (ng/mL)
The reply should be a number in ng/mL, with the unit left off.

Data request, read-out concentration at 1.833 h, for C=C(C)C1CC2(C)C(=CC1=O)CCC(OC(=O)/C(C)=C\C)C2C (stereo not shown) [petasin] 32

----------
Assay: 1st phase clinical test: pharmacokinetics of petasin in serum after single oral administration of tablets containing butterbur extract (open crossover; enzyme immunoassay)
Assay type: in vivo, human (clinically healthy men)
Settings: male, human, serum, oral, 4 tablets, after administering 4 tablets; 8 h p.a.; read-out: Petasin serum concentration Min.
Endpoint Label: concentration at 8 h
Reply with the number, then its unit.

Data request, read-out concentration at 8 h, for C=C(C)C1CC2(C)C(=CC1=O)CCC(OC(=O)/C(C)=C\C)C2C (stereo not shown) 1.4 ng/mL

----------
Experiment: 1st phase clinical test: pharmacokinetics of petasin in serum after single oral administration of tablets containing butterbur extract (open crossover; enzyme immunoassay)
Format: in vivo, human (clinically healthy men)
Conditions: male, human, serum, oral, 2 tablets, after administering 2 tablets; 0.75 h p.a.; read-out: Petasin serum concentration Mean
Endpoint Label: concentration at 0.75 h

Data request, read-out concentration at 0.75 h, for C=C(C)C1CC2(C)C(=CC1=O)CCC(OC(=O)/C(C)=C\C)C2C (stereo not shown) 11.9 ng/mL

Attribution: patent US20050042701A1
